# Recorded Conditions: buffer; pH 7.4; 200.0 µM
Each entry below carries its recorded solubility kinetic.
Give the number; µg/mL is assumed, so skip it.

Worked cases, solubility kinetic given:
# Compound, Value Unit, solubility kinetic
measured = [
    ("COc1ccccc1NS(=O)(=O)c1cc(N)ccc1N1CCOCC1", "µg/mL", 5),
    ("CCC(NC(=O)Nc1cc(C)on1)(C(F)(F)F)C(F)(F)F", "µg/mL", 14.6),
    ("Cl.OC12CC3C[C@H](C1)C(N1CCOCC1)[C@@H](C3)C2 (stereo partly specified)", "µg/mL", 36.8),
]

Then there is this compound:
Task: Which solubility kinetic value belongs to COc1ccc(NC(=O)c2cc(-c3ccco3)on2)cc1OC ?
Result: 1.6

---

# Recorded Conditions: buffer; pH 7.4; 200.0 µM
Result Type: solubility kinetic (µg/mL)
// return numeric value only (unit: µg/mL, not printed)

Record excerpt, results attached:
# Compound, solubility kinetic (µg/mL)
records = [
    ("CC(C)(C)C(=O)Nc1ccc(F)cc1[N+](=O)[O-]", 13.8),
    ("O=C(O)CCCNC(=O)/C=C/c1ccco1", 26.5),
    ("CC(=O)C1C(=O)c2c(cccc2[N+](=O)[O-])C1=Nc1cccc(Cl)c1 (centres undefined)", 1.6),
]

Task: So what does the record say about solubility kinetic for CCOC(=O)C1CCCN(CC(=O)c2c[nH]c3ccc(C)cc23)C1 (centres undefined) ?
Result: 46.5

Task: Then Cc1cc(C)nc(NS(=O)(=O)c2ccc(CC(C)C)cc2)c1 ?
Result: 28.9

Task: Param item: O=C1CCCN1CCCNC(=S)Nc1ccccc1
Result: 41

Task: Now consider O=C(Nc1ccc(Cl)c(S(=O)(=O)N2CCOCC2)c1)c1cc2ccccc2oc1=O .
Result: 2.4

Task: What do we get for O=c1[nH]c(SCCN2CCOCC2)nc(O)c1-c1ccccc1 ?
Result: 44.2

Task: And the next one, O=C(COc1ccccc1)OCC(=O)c1c[nH]c2ccccc12 ?
Result: 8.9

Task: Continue with O=C(Nc1ccccn1)Nc1ccccc1[N+](=O)[O-]
Result: 2.9

Task: Please do the same for Cc1cc(=O)cc(C)n1-c1ccccc1N as well.
Result: 31.1

Task: Then O=C(NCc1cccnc1)/C(=C/c1ccc([N+](=O)[O-])cc1)NC(=O)c1ccccc1 ?
Result: 10.2

Task: Again, but for O=C(CCC(=O)NC12CC3CC(CC(C3)C1)C2)NC1CCCCC1
Result: 17.2

Task: # repeat for Cc1ncc(CN2CCCC(C(=O)c3sccc3C)C2)s1 (centres undefined)
Result: 37.4

Task: # iterate: Cc1c(Cc2ccccc2)sc(NC(=O)C(C)(C)C)c1C(N)=O
Result: 17.7

Task: // repeat for CCN(CC)CC#Cc1ccc(C)cc1.Cl and report
Result: 17.1

Task: Next compound up: Cc1cc(N2CCOCC2)nc2ccc(NC(=S)NC(C)C)cc12
Result: 4.6

Task: Entry Cc1ccc(N2C(=O)NC(=O)/C(=C\C=C\c3ccco3)C2=O)cc1 please
Result: 8.8

Task: # repeat for OCCCc1nc2ccccc2n1CCCCOc1ccccc1
Result: 44.6

Task: Lookup CN(C)C(=O)COc1ncnc2sc(-c3ccccc3)cc12
Result: 13.9

Task: Okay, and CCN(c1ccccc1)S(=O)(=O)c1ccc(Cl)c(NC(=O)CNC(C)c2ccccc2)c1 (centres undefined) ?
Result: 3.2

Task: Input O=c1c2ccccc2ncn1CCCCOc1ccccc1F
Result: 37.3

These measurements were taken from PubChem BioAssay AID1996.
